- Assay Target: human AChE (Homo sapiens)
- Construct: gift of Dr. F. Nachon (Département de Toxicologie, Armed Forces Biomedical Research Institute, France)
- Sequence (P22303 32-614): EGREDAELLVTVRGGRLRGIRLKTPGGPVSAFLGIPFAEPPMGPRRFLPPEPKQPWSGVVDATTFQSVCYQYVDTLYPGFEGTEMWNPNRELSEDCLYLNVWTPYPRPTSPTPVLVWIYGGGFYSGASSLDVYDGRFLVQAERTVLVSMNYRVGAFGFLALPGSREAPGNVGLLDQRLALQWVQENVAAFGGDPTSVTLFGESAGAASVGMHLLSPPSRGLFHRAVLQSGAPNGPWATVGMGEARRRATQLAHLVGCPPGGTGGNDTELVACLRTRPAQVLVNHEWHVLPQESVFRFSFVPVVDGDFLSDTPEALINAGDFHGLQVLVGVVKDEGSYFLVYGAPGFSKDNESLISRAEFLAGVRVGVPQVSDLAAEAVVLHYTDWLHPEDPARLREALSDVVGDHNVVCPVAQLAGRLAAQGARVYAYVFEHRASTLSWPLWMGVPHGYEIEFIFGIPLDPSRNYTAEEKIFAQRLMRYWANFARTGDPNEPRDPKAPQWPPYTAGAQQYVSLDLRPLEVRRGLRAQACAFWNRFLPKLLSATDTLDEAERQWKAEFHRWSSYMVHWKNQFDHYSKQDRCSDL
- Assay Comment: Reversible inhibition of human AChE, Ellman method with ATCh, Hunter-Downs analysis
- Assay type: biochemical
- Run Conditions: enzyme-substrate (ATCh) dissociation constant derived from the inhibition kinetics with the compound
Endpoint: AChE Ks (mM)
Give a bare numeral; the unit mM is implied.

Ask: For C=CC1C[N+]2(Cc3ccc(Br)cc3)CCC1CC2C(O)c1ccnc2ccccc12 (centres unmarked) [CN-(pBr)] , write its AChE Ks.
Result: 2.7

Ask: Name the recorded AChE Ks of the compound listed here: C=CC1C[N+]2(C)CCC1CC2C(O)c1ccnc2ccccc12 (centres unmarked) [CN-Met]
Result: 0.32

Ask: Query AChE Ks for C=CC1C[N+]2(Cc3ccccc3)CCC1CC2C(O)c1ccnc2ccccc12 (centres unmarked) [CN-Bzl]
Result: 1.1

Ask: Please give measured AChE Ks of the following entry: C=CC1C[N+]2(Cc3cccc(C)c3)CCC1CC2C(O)c1ccnc2ccccc12 (centres unmarked) [CD-(mCH3)]
Result: 0.63

Ask: Let me know recorded AChE Ks for C=CC1C[N+]2(C)CCC1CC2C(O)c1ccnc2ccccc12 (centres unmarked) [CD-Met] , thanks.
Result: 0.70
